Measured values drawn from ChEMBL document CHEMBL5724914 for this set.

- Condition details: human gut metagenome, 24 h, 2 µM; also: call rule not given here
Assay metric: Bacterial Biotransformation

Answered examples (4):
- Compound: "COCCc1ccc(OCC(O)CNC(C)C)cc1.COCCc1ccc(OCC(O)CNC(C)C)cc1.O=C(O)C(O)C(O)C(=O)O (centres undefined) [METOPROLOL TARTRATE]"
  Bacterial Biotransformation: "Compound metabolized"
- Compound: "CN1CCc2cccc3c2[C@H]1Cc1ccc(O)c(O)c1-3 [APOMORPHINE]"
  Bacterial Biotransformation: "Compound NOT metabolized"
- Compound: "COC(=O)Nc1nc2ccc(C(=O)c3ccccc3)cc2[nH]1 [MEBENDAZOLE]"
  Bacterial Biotransformation: "Compound metabolized"
- Compound: "CC(CN(C)C)CN1c2ccccc2CCc2ccccc21.O=C(O)/C=C\\C(=O)O (centres undefined) [TRIMIPRAMINE MALEATE]"
  Bacterial Biotransformation: "Compound metabolized"

Ask | Returns the measured Bacterial Biotransformation for the input compound. Input: CNCCC(Oc1ccc(C(F)(F)F)cc1)c1ccccc1 (centres undefined) [FLUOXETINE]
Reply | Compound NOT metabolized

Ask | Returns the measured Bacterial Biotransformation for the input compound. Input: NC(=O)N1c2ccccc2CC(=O)c2ccccc21 [OXCARBAZEPINE]
Reply | Compound metabolized

Ask | Returns the measured Bacterial Biotransformation for the input compound. Input: O=C1[C@H](CC[C@H](O)c2ccc(F)cc2)[C@@H](c2ccc(O)cc2)N1c1ccc(F)cc1 [EZETIMIBE]
Reply | Compound metabolized

Ask | Returns the measured Bacterial Biotransformation for the input compound. Input: CN1CCN(C2=Nc3cc(Cl)ccc3Nc3ccccc32)CC1 [CLOZAPINE]
Reply | Compound metabolized
